- protocol_details: log P (Table 1)
- Type: physicochemical
Assign class by logP: not lower than 4 means MET; lower than 4 means NOT MET.

Sample answers from the record:
CCCCCN(C(=O)c1ccc(Cl)cc1)c1ccc2nc(CCC)n(Cc3ccc(-c4ccccc4-c4nn[nH]n4)cc3)c(=O)c2c1
MET
O=C(c1ccccc1)N(Cc1ccccc1)c1ccc2ncn(Cc3ccc(-c4ccccc4-c4nn[nH]n4)cc3)c(=O)c2c1
NOT MET
CCCc1nc2ccc(N(C)C(C)=O)cc2c(=O)n1Cc1ccc(-c2ccccc2S(=O)(=O)NC(=O)C2CC2)cc1
NOT MET
Cc1nc2ccc(N(Cc3ccccc3)C(=O)c3ccncc3)cc2c(=O)n1Cc1ccc(-c2ccccc2-c2nnn[nH]2)cc1
NOT MET
CCCCCN(C(=O)c1cccs1)c1ccc2nc(CCC)n(Cc3ccc(-c4ccccc4-c4nnn[nH]4)cc3)c(=O)c2c1
MET

Now for another entry.
Say whether CCCc1nc2ccc(N(Cc3ccccn3)C(=O)OCC)cc2c(=O)n1Cc1ccc(-c2ccccc2-c2nn[nH]n2)cc1 shows logP of 4 or more. NOT MET
